target: Glucose transporter (Leishmania mexicana); assay: ST_JUDE_LEISH: Cytotoxicity at 2uM final concentration against transgenic Leishmania Mexicana promastigotes LmGT2 that are glucose transport deficient and complemented with the L. Mexicana glucose transporter 2. Activity is measured by DNA content using SYBR green in vitro; assay type: functional
# Lookup of reported inhibition keyed by entry
measured-quantity: inhibition (%)

compound: COc1cc(NC(=O)/C=C/c2cc3ccccc3n2C)ccc1OCCN(C(C)C)C(C)C
target-or-test-system: Glucose transporter (Leishmania mexicana)
measured-quantity: inhibition
experimental-result: 3.12
//
compound: C#CCN(Cc1cc2c(=O)[nH]c(N)nc2cc1C)c1ccc(C(=O)N[C@@H](CCC(=O)O)C(=O)O)cc1
target-or-test-system: Glucose transporter (Leishmania mexicana)
measured-quantity: inhibition
experimental-result: 8.07
//
compound: O=C(/C=C/c1cccc(Br)c1)NCCCCCN1CCC(c2c[nH]c3ccccc23)CC1
target-or-test-system: Glucose transporter (Leishmania mexicana)
measured-quantity: inhibition
experimental-result: 5.42
//
compound: CCNS(=O)(=O)c1ccc(Oc2ccc([N+](=O)[O-])cc2)cc1
target-or-test-system: Glucose transporter (Leishmania mexicana)
measured-quantity: inhibition
experimental-result: -1.68
//
compound: c1cc(C2=NC3CCCCC3N2)ccc1OCCCOc1ccc(C2=NC3CCCCC3N2)cc1 (stereo not given)
target-or-test-system: Glucose transporter (Leishmania mexicana)
measured-quantity: inhibition
experimental-result: 1.12
//
compound: COc1cc(NC(=O)c2sc(-c3ccc(Cl)cc3)cc2NC(=O)c2cccnc2)ccc1OCCN1CCCC1
target-or-test-system: Glucose transporter (Leishmania mexicana)
measured-quantity: inhibition
experimental-result: 6.19
//
compound: CCc1ccc(NC(=O)c2ccc(CN3CCCN(CCC(C)C)CC3)cc2)cc1
target-or-test-system: Glucose transporter (Leishmania mexicana)
measured-quantity: inhibition
experimental-result: 5.85
//
compound: CCN(CCCN1CCCCC1)c1nc(C)cc(Nc2ccc(Cl)cc2)n1
target-or-test-system: Glucose transporter (Leishmania mexicana)
measured-quantity: inhibition
experimental-result: 1.1
//
compound: CSc1ccc(CN2CCC(NC(=O)c3ccc(-c4cccc(Cl)c4)s3)CC2)cc1
target-or-test-system: Glucose transporter (Leishmania mexicana)
measured-quantity: inhibition
experimental-result: 2.36
//
compound: Fc1cccc(COc2ccc(Nc3ncnc4sc(C#CC5CCCCN5)cc34)cc2Cl)c1 (stereo not given)
target-or-test-system: Glucose transporter (Leishmania mexicana)
measured-quantity: inhibition
experimental-result: -0.16

----------
target: Hexose transporter 1 (Plasmodium falciparum) (UniProt O97467); experiment: ST_JUDE_LEISH: Cytotoxicity at 2uM final concentration against transgenic Leishmania Mexicana promastigotes LmPfHT that are glucose transport deficient and complemented with the Plasmodium falciparum hexose transporter. Activity is measured by DNA content using SYBR green in vitro; assay type: functional
# Lookup of reported inhibition keyed by entry

compound: Cn1c(CN2CCC(N3CCc4cc(NC(=O)c5ccco5)ccc43)C2)cc2ccccc21 (stereo not given)
measure-unit: %
inhibition: 4.84
--
compound: CCCCCCCCc1nc(C)c(Br)c(O)c1Br
measure-unit: %
inhibition: 5.98
--
compound: COc1cccc(-c2csc(C(=O)NCC3CCN(Cc4ccc(C(C)C)cc4)C3)c2)c1 (stereo not given)
measure-unit: %
inhibition: -1.41
--
compound: O=C(Nc1ccc(C(=O)OCC2CCCN3CCCCC23)cc1)c1ccc([N+](=O)[O-])cc1 (stereo not given)
measure-unit: %
inhibition: 0.57
--
compound: O=C(c1cccs1)N(Cc1cccc(-c2ccc(CNCCc3ccccc3)cc2)c1)C1CCN(Cc2ccccc2)CC1
measure-unit: %
inhibition: 7.55

----------
# Lookup of reported inhibition keyed by entry
molecular target: Glucose transporter (Leishmania mexicana); assay: ST_JUDE_LEISH: Cytotoxicity at 2uM final concentration against transgenic Leishmania Mexicana promastigotes LmGT2 that are glucose transport deficient and complemented with the L. Mexicana glucose transporter 2. Activity is measured by DNA content using SYBR green in vitro; format: functional
measured-quantity: inhibition (%)

molecule: c1ccc(Oc2ccc(Nc3ccnc4cc(-c5ccc(CN6CCOCC6)o5)ccc34)cc2)nc1
measure-unit: %
experimental-result: -0.13
--
molecule: CCc1ccc(CN2CCC(CNC(=O)c3cc(-c4cccc(Cl)c4)cs3)C2)cc1 (stereo not given)
measure-unit: %
experimental-result: -4.94
--
molecule: COc1cccc(COCC(O)CN(CCc2ccccn2)C(=O)c2ccccc2F)c1 (stereo not given)
measure-unit: %
experimental-result: 2.65
--
molecule: Cc1cccc(N2CCN(C3CCC(NC(=O)c4cc5ccccc5[nH]4)CC3)CC2)c1C (stereo not given)
measure-unit: %
experimental-result: 1.43
--
molecule: c1ccc2[nH]c(-c3ccc(-c4ccc(CN5CCN(c6ccncc6)CC5)cc4)cc3)nc2c1
measure-unit: %
experimental-result: 6.31

----------
molecular target: Solute carrier family 2, facilitated glucose transporter member 1 (Homo sapiens) (UniProt P11166); experiment: ST_JUDE_LEISH: Cytotoxicity at 2uM final concentration against transgenic Leishmania Mexicana promastigotes LmGLUT1 that are glucose transport deficient and complemented with the human glucose transporter GLUT1. Activity is measured by DNA content using SYBR green in vitro; assay type: functional
Sequence (P11166 whole entry): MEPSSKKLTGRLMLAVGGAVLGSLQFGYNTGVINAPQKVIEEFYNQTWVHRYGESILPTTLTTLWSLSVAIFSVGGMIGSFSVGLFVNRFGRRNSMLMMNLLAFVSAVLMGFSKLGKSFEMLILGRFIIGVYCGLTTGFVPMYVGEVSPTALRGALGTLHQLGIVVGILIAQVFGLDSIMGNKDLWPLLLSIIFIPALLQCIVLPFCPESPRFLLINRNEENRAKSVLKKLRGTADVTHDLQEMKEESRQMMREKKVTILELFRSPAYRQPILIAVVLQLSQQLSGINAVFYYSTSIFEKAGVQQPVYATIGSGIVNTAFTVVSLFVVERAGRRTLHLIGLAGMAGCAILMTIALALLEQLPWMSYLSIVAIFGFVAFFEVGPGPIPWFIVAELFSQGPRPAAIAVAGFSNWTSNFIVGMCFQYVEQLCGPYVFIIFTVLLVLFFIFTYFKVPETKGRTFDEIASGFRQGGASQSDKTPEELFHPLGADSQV

compound: Cc1nc2ccc3nc(NC(=O)c4ccno4)sc3c2s1
measure-unit: %
inhibition: 1.74
--
compound: O=C(CNC(=O)c1ccc(O)cc1)Nc1cccc(-c2cccc(-c3nc4cc(C(F)(F)F)ccc4[nH]3)c2)c1
measure-unit: %
inhibition: 3.81
--
compound: COc1ccc(-c2ccc(CNC3Cc4ccccc4C3)cc2)cc1S(=O)(=O)NCCN1CCCC1
measure-unit: %
inhibition: 1.48
--
compound: C=Cc1sc(CNCCCNc2cc(=O)c3ccccc3[nH]2)c(C)c1Br
measure-unit: %
inhibition: 0.34
--
compound: CO/C(=C\C=C\c1cc2cc(Cl)c(Cl)cc2[nH]1)C(=O)NCCCN1CC(C)N(C)CC1C (centres undefined)
measure-unit: %
inhibition: 7.33
--
compound: O=C(c1ccc(Br)o1)N1N=C(c2cccs2)CC1c1ccc(Br)cc1 (centres undefined)
measure-unit: %
inhibition: 5.77
--
compound: COc1ccc(OC)c(Cc2cnc3nc(N)[nH]c(=O)c3c2C)c1
measure-unit: %
inhibition: 3.38
--
compound: Cc1ccc(/C=C/C(=O)NCCCCCN2CCC(c3c[nH]c4ccccc34)CC2)cc1
measure-unit: %
inhibition: 5.46
--
compound: Oc1c(Br)cc2oc3c(c2c1CNCc1ccccc1)CCCC3
measure-unit: %
inhibition: -0.72
--
compound: N#Cc1cccc(-c2cccc(C(=O)NC3CCC(CCN4CCc5ccc(C#N)cc5CC4)CC3)c2)c1 (centres undefined)
measure-unit: %
inhibition: 10.8
--
compound: CCOC(=O)Cn1ccc2c(NCc3ccccc3)nc(C)nc21
measure-unit: %
inhibition: 0.48
--
compound: CN1CCN(CCCN(Cc2ccc(-c3cccc(CNC4CCCC4)c3)cc2)C(=O)Nc2ccccc2)CC1
measure-unit: %
inhibition: 9.1
--
compound: O=C(Nc1ccc(CCN2CCC(c3nc(COCC(F)(F)F)c(-c4ccccc4)o3)CC2)cc1)c1ccc(F)cc1
measure-unit: %
inhibition: 2.62
--
compound: O=C(/C=C/c1ccc(I)cc1)NCCCCCN1CCC(c2c[nH]c3ccccc23)CC1
measure-unit: %
inhibition: 3.43
--
compound: C[C@H](Nc1c(Nc2ccc3[nH]ccc3c2)c(=O)c1=O)C1CCCCC1
measure-unit: %
inhibition: -1.55
--
compound: Cc1c(N=O)cc(C(C)(C)C)c(O)c1C(=O)Nc1ccc([N+](=O)[O-])cc1Cl
measure-unit: %
inhibition: 2.33
--
compound: Cc1c(NCCCNCc2cc(Cl)cc(Cl)c2Cl)[nH]c2ccccc2c1=O
measure-unit: %
inhibition: 10.6
--
compound: Cn1ccc2c3c(N)nc(N)nc3ccc21
measure-unit: %
inhibition: 0.43
--
compound: O=C1COC2(CN1CC1CCN(Cc3ccc(O)c(Cl)c3)C1)c1ccccc1-c1ccccc12 (centres undefined)
measure-unit: %
inhibition: -0.03
--
compound: O=C(/C=C/c1ccc(Cl)c(Cl)c1)NCCCCCN1CCC(NC(=O)c2cccc(Cl)c2)CC1
measure-unit: %
inhibition: 9.72
--
compound: c1ccc(-c2ccc(CNCCCNc3nc4ccccc4[nH]3)cc2)cc1
measure-unit: %
inhibition: 4.26
--
compound: CCOc1cccc2nc(NCCCNCc3ccc(Cl)c(Cl)c3)cc(NCCCNCc3ccc(Cl)c(Cl)c3)c12
measure-unit: %
inhibition: -3.5
--
compound: Oc1ccc(CC2CCCN(c3nc(NCCCOc4ccccc4-c4ccccc4)nc(N4CCNCC4)n3)C2)cc1 (centres undefined)
measure-unit: %
inhibition: -0.74
--
compound: Cc1nc(O)c2c(ccc3ccc(CNc4ccc(C(=O)N[C@@H](CCC(=O)O)C(=O)O)c(F)c4)cc32)n1
measure-unit: %
inhibition: -0.83
--
compound: CN1CCC(NCc2cccc(-c3ccc(S(=O)(=O)NCCc4ccccn4)c(F)c3)c2)CC1
measure-unit: %
inhibition: 1.22
--
compound: COc1cc(Br)c(S(=O)(=O)n2cc(CN3CCC(N)CC3)c3cc(Cl)ccc32)cc1OC
measure-unit: %
inhibition: 1.4
--
compound: Cc1cccc2nc(-c3cccc(-c4cccc(C(=O)NCCN5CCCC5)c4)c3)[nH]c12
measure-unit: %
inhibition: 1.04
--
compound: CC(=NNC(=N)N)C(=O)Nc1ccc(Cl)c(Cl)c1
measure-unit: %
inhibition: 1.75
--
compound: COc1cc(NC(=O)c2cccc([N+](=O)[O-])c2)cc(S(=O)(=O)c2ccc(Cl)cc2)c1
measure-unit: %
inhibition: -0.46
--
compound: O=C(Nc1ccnc(N2CCCN(Cc3cccc(O)c3)CC2)c1)c1ccc(F)cc1
measure-unit: %
inhibition: 2.79
--
compound: O=[N+]([O-])c1ccc(N/C(=N\c2ccccc2Br)NCCOc2ccccc2)c(O)c1
measure-unit: %
inhibition: 0.7
--
compound: Cc1cc(NC(=O)Nc2cccc(Cl)c2Cl)c2ccccc2n1
measure-unit: %
inhibition: 6.15
--
compound: COc1ccccc1C1CCN(C2CCC(NC(=O)c3ccc4[nH]c(-c5ccc(C)cc5)nc4c3)CC2)CC1 (centres undefined)
measure-unit: %
inhibition: 1.55
--
compound: CCOC(=O)C1=C(C)N=c2sc(=Cc3cc(Cl)ccc3O)c(=O)n2C1c1cc(OC)c(OC)cc1Br (centres undefined)
measure-unit: %
inhibition: 7
--
compound: COc1ccc(CNCc2cccc(-c3ccc(-c4nc5cccc(C)c5[nH]4)s3)c2)cc1
measure-unit: %
inhibition: 3.18
--
compound: O=C(NCCN1CCCCC1)c1ccc(CNC(=O)c2ccc(O)c(-c3ccc(Cl)c(Cl)c3)c2)cc1
measure-unit: %
inhibition: 0.15
--
compound: COc1cc(C)nc2ccc(NC(=O)c3cc(C(F)(F)F)cc(C(F)(F)F)c3)cc12
measure-unit: %
inhibition: 16.3
--
compound: N#Cc1ccc(-c2ccc(C(=O)NCCCCN3CCC(c4ccc5c(c4OCC(N)=O)CCCC5)CC3)nc2)cc1
measure-unit: %
inhibition: 3.35
--
compound: Cc1ccc(NC(=O)c2ccc3nccnc3c2)cc1OC1CCN(Cc2ccc(F)cc2)CC1
measure-unit: %
inhibition: 10.6

This collection of values is drawn from ChEMBL document CHEMBL3433997.
